Target: Scrib PDZ-3 domain (Homo sapiens)
Construct: ROC curves of DomPep prediction for the three Scrib PDZ-1/2/3 domains
Sequence (Q14160 1004-1093 limits assumed): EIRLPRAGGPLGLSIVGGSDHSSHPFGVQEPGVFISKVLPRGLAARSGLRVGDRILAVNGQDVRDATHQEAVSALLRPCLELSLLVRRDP
Test: In-solution fluorescence polarization binding of peptides to Scrib PDZ3
Conditions: Kd value of 100 µM applied as binding cutoff, NB without definition
Procedure: Because DomPep compared favorably to MDSM in identifying ligands for a PDZ domain included in the training set and to SPSSM in identifying binding peptides for an untrained PDZ domain, we next tested it whether it could reliably PPIs mediated by a PDZ domain on the genome scale. […] Figure 4 Application of DomPep to the prediction of PDZ-binding ligands. […] The respective affinities of the three domains for the 56 peptides were measured by fluorescence polarization (Table 1).
Residues, ends and D or L forms follow the SMILES beside them.
Could you please report measured Kd for the items listed next?

Prompt line: // map CC[C@H](C)[C@H](NC(=O)[C@@H](NC(=O)[C@H](Cc1ccccc1)NC(=O)[C@H](CCC(=O)O)NC(=O)[C@@H]1CCCN1C(=O)[C@H](CC(N)=O)NC(=O)[C@@H](NC(=O)[C@@H](N)Cc1ccc(O)cc1)[C@@H](C)O)C(C)C)C(=O)N[C@@H](CC(N)=O)C(=O)N[C@H](C(=O)O)C(C)C [PRKCB1] (H-YTNPEFVINV-OH; N-terminus and C-terminus assumed) to recorded Kd (system: Scrib PDZ-3 domain (Homo sapiens))
Response line: > 100 µM

Prompt line: // map CC(C)[C@H](NC(=O)[C@H](CCCNC(=N)N)NC(=O)[C@@H](N)CC(=O)O)C(=O)N[C@@H](C)C(=O)N[C@@H](CCC(=O)O)C(=O)N[C@@H](CCC(N)=O)C(=O)N[C@@H](CC(=O)O)C(=O)N[C@H](C(=O)N[C@@H](CCC(N)=O)C(=O)N[C@@H](C)C(=O)O)[C@@H](C)O [MPG] (H-DRVAEQDTQA-OH) to recorded Kd (system: Scrib PDZ-3 domain (Homo sapiens))
Response line: 186 µM

Prompt line: // map CC(C)C[C@H](NC(=O)[C@H](CC(C)C)NC(=O)[C@@H](NC(=O)CNC(=O)[C@H](Cc1ccc(O)cc1)NC(=O)[C@H](CC(C)C)NC(=O)[C@H](CCC(N)=O)NC(=O)[C@H](C)NC(=O)[C@@H](N)CCCCN)[C@@H](C)O)C(=O)N[C@@H](CC(N)=O)C(=O)O [BEGAIN] (H-KAQLYGTLLN-OH; N-terminus and C-terminus assumed) to recorded Kd (system: Scrib PDZ-3 domain (Homo sapiens))
Response line: > 100 µM
